ΔΔG by entry:
target_desc: T1, human ribonuclease inhibitor (human, UniProt P13489 2-461)
T1 construct: also called hRI; hR1
T1 sequence: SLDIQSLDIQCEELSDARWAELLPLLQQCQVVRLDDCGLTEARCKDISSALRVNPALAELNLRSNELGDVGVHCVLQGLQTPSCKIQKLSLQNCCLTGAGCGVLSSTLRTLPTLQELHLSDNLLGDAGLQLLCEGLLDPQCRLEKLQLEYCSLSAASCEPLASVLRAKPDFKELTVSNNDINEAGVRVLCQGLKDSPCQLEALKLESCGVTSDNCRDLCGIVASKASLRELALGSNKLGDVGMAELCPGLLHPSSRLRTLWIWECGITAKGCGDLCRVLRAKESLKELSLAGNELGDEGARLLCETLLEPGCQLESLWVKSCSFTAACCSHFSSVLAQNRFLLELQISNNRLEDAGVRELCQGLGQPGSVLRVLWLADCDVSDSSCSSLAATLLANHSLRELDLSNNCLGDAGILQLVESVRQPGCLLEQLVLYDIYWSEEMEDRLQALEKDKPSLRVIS
assay_name: calculated from Kd: ΔΔG = -RTln(Kd wild-type/Kd variant)

// field: ΔΔG; key: R39D/N67D/N88A/G89D/R91D RNase 1 (enzyme) KESRAKKFQRQHMDSDSSPSSSSTYCNQMMRRRNMTQGDCKPVNTFVHEPLVDVQNVCFQEKVTCKDGQGNCYKSNSSMHITDCRLTADSDYPNCAYRTSPKERHIIVACEGSPYVPVHFDASVEDST ; value = 9.5 kcal/mol

// field: ΔΔG; key: R39D/N67D/N88A/G89D RNase 1 (enzyme) KESRAKKFQRQHMDSDSSPSSSSTYCNQMMRRRNMTQGDCKPVNTFVHEPLVDVQNVCFQEKVTCKDGQGNCYKSNSSMHITDCRLTADSRYPNCAYRTSPKERHIIVACEGSPYVPVHFDASVEDST ; value = 6.7 kcal/mol

// field: ΔΔG; key: R39D/N67D/G89D/R91D RNase 1 (enzyme) KESRAKKFQRQHMDSDSSPSSSSTYCNQMMRRRNMTQGDCKPVNTFVHEPLVDVQNVCFQEKVTCKDGQGNCYKSNSSMHITDCRLTNDSDYPNCAYRTSPKERHIIVACEGSPYVPVHFDASVEDST ; value = 9.1 kcal/mol

// field: ΔΔG; key: R39D/N88A/G89D/R91D RNase 1 (enzyme) KESRAKKFQRQHMDSDSSPSSSSTYCNQMMRRRNMTQGDCKPVNTFVHEPLVDVQNVCFQEKVTCKNGQGNCYKSNSSMHITDCRLTADSDYPNCAYRTSPKERHIIVACEGSPYVPVHFDASVEDST ; value = 7.6 kcal/mol

// field: ΔΔG; key: G38R/R39G/N67R/N88R RNase 1 (enzyme, Made by site-directed mutagenesis and purified like wild-type RNase 1) KESRAKKFQRQHMDSDSSPSSSSTYCNQMMRRRNMTQRGCKPVNTFVHEPLVDVQNVCFQEKVTCKRGQGNCYKSNSSMHITDCRLTRGSRYPNCAYRTSPKERHIIVACEGSPYVPVHFDASVEDST ; value = 3 kcal/mol

// field: ΔΔG; key: R39L/N67L/N88A/G89L/R91L RNase 1 (enzyme) KESRAKKFQRQHMDSDSSPSSSSTYCNQMMRRRNMTQGLCKPVNTFVHEPLVDVQNVCFQEKVTCKLGQGNCYKSNSSMHITDCRLTALSLYPNCAYRTSPKERHIIVACEGSPYVPVHFDASVEDST ; value = 7.1 kcal/mol
